ASSAY_TEXT: Stat Signaling Pathway (AID 446);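 note: ME-180 cervical cancer cells given 40 pM IL-6 alongside compound; SIE-controlled beta-lactamase reporter measured as 460/530 nm FRET emission ratio; % is set by controls: 0 for no effect and ±100 for the full control effect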
CONDITIONS: ME-180 (cervical carcinoma) SIE beta-lactamase reporter, IL-6 stimulated, 5 h; at 38 µM (top of the series) unless noted
Results filed as inconclusive are left out. Activity calls are given as the source filed them. Calls come from the whole dose curve; as a rule, active = well fitted curve in either direction with a large enough effect (not every such curve was filed as active); inconclusive = small, poorly fitted or top-dose-only effect, or another doubt; inactive = flat fitted curve, though single readings scatter.
MEASURED_PARAMETER: activity, negative = inhibition

Form field activity, negative = inhibition, entry `NC(=O)c1cc(N2CC2)c([N+](=O)[O-])cc1[N+](=O)[O-]` : 19.5% (inactive)

Form field activity, negative = inhibition, entry `Clc1cc(I)cc(Cl)c1NC1=NCCN1` : -14.2% (inactive)

Form field activity, negative = inhibition, entry `N#CC(C#N)=Cc1cc(O)c(O)c(O)c1` : 2.4% (inactive)

Form field activity, negative = inhibition, entry `NCCCP(=O)(O)O` : 26.4% (inactive)

Form field activity, negative = inhibition, entry `c1cc2c(c(NC3=NCCN3)c1)CCCC2` : 4.34% [at 7.69 µM] (inactive)

Form field activity, negative = inhibition, entry `C[N+](C)(C)CCOC(=O)CBr` : -5.3% (inactive)

Form field activity, negative = inhibition, entry `NCCc1c[nH]c2ccc(C(N)=O)cc12` : 4.94% (inactive)

Form field activity, negative = inhibition, entry `O=[N+]([O-])c1cc(O)c(O)c([N+](=O)[O-])c1` : 48.1% (inactive)

Form field activity, negative = inhibition, entry `CCCN(CCC)C1Cc2cc(OC)c(OC)cc2C1` : 21.3% (inactive)

Form field activity, negative = inhibition, entry `C[C@H](N)CN1CCc2ccc(Br)cc21` : -29.5% (inactive)

Form field activity, negative = inhibition, entry `C[C@@H]1[C@@H]2Cc3ccc(O)cc3[C@@]1(C)CCN2CC1CC1` : -18.1% (inactive)

Form field activity, negative = inhibition, entry `CCS(=O)(=O)Nc1cccc(C(=C2CCCCC2)c2cnc[nH]2)c1` : -26.3% (inactive)

Form field activity, negative = inhibition, entry `CCC(=O)O[C@@](Cc1ccccc1)(c1ccccc1)[C@@H](C)CN(C)C` : 5.74% [at 17.2 µM] (inactive)

Form field activity, negative = inhibition, entry `CN1CCc2cccc(Cl)c2CC1` : 15.3% (inactive)

Form field activity, negative = inhibition, entry `N#CCCN` : 20.4% (inactive)

Form field activity, negative = inhibition, entry `O=C1C=CC(=O)C=C1` : -5.57% (inactive)

Form field activity, negative = inhibition, entry `O=S1(=O)N(CCN2CC=C(c3c[nH]c4cc(F)ccc34)CC2)c2cccc3c2N1CCC3` : 22.3% (inactive)

Form field activity, negative = inhibition, entry `CCCCCCC(C)(C)c1ccc([C@@H]2C[C@H](O)CC[C@H]2CCCO)c(O)c1` : -25.8% (inactive)

Form field activity, negative = inhibition, entry `Clc1ccc(N2C[C@H]3CC[C@@H](C2)N3)nn1` : 37.1% (inactive)

Form field activity, negative = inhibition, entry `O=[N+]([O-])c1ccc2nc(N3CCNCC3)ccc2c1` : 2.58% (inactive)

Form field activity, negative = inhibition, entry `Nc1ccc(CCN2CCN(c3cccc(C(F)(F)F)c3)CC2)cc1` : -17.7% (inactive)

Form field activity, negative = inhibition, entry `c1ccc2cc(CC3=NCCN3)ccc2c1` : -3.81% (inactive)

Form field activity, negative = inhibition, entry `C[C@@H](Cc1ccccc1)NCCC(c1ccccc1)c1ccccc1` : -3.28% [at 17.2 µM] (inactive)

Form field activity, negative = inhibition, entry COc1ccc(OC)c(C(O)C(C)N)c1 (stereo unspecified) : 2.12% [at 17.2 µM] (inactive)

Form field activity, negative = inhibition, entry `CCCn1c(=O)c2[nH]c(C3CCCC3)nc2n(CCCOC(=O)c2ccc(S(=O)(=O)F)cc2)c1=O` : -25.7% (inactive)

Form field activity, negative = inhibition, entry `NNC(=O)c1ccc(O)cc1` : 13.1% (inactive)

* * *

SYSTEM_UNDER_TEST: D(1A) dopamine receptor (Homo sapiens) (UniProt P21728)
Sequence (P21728 whole entry, looked up): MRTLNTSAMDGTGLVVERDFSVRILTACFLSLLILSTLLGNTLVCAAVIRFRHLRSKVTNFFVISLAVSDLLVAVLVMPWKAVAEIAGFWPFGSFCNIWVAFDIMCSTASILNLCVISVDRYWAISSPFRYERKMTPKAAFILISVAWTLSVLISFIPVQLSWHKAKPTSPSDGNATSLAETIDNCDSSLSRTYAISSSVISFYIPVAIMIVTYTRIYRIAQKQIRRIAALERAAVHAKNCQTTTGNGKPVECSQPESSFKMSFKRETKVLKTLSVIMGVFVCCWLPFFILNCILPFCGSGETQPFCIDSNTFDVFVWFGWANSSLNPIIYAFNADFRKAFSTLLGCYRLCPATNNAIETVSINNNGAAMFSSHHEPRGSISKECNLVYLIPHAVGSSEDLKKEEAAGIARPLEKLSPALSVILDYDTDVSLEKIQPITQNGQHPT
ASSAY_TEXT: HTS Assay for Allosteric Agonists of the Human D1 Dopamine Receptor: Primary Screen for Potentiators (AID 488982)
CONDITIONS: HEK293 T-REx D1 inducible cells, calcium flux, kinetic fluorescence; series mostly up to 8.37 µM
Records with an inconclusive call do not appear. Calls of active or inactive are those of the source. Calls follow the shape of the dose curve; as a rule, active = well fitted activation curve with a large enough effect; inconclusive = small, poorly fitted or top-dose-only effect; inactive = no such curve, though single readings can be large or run the other way.
Use one of these outcomes when replying: 1 = active, -1 = inactive

Task: For this molecule, state the assay outcome: `O=C1C=CC(=O)C=C1`
Output: -1

Task: For this molecule, state the assay outcome: Ic1ccccc1CNC1C2CCN(CC2)C1C(c1ccccc1)c1ccccc1 (stereo unspecified)
Output: 1

Task: For this molecule, state the assay outcome: `CCCN(CCC)[C@@H]1CCc2cccc(O)c2C1`
Output: -1

Task: For this molecule, state the assay outcome: `Cc1sc2ccccc2c1CC1=NCCN1`
Output: -1

Task: For this molecule, state the assay outcome: CC(N)Cc1c[nH]c2ccc(O)cc12 (stereo unspecified)
Output: -1

Task: For this molecule, state the assay outcome: `CN(N=O)c1ccc(O)c(O)c1`
Output: -1

* * *

ASSAY_TEXT: qHTS Assay for Identification of Small Molecule Antagonists for NFkB Signaling Pathway (AID 895)
CONDITIONS: NFkB beta-lactamase reporter cells, FRET ratio 460/530; series mostly up to 38.3 µM
Results filed as inconclusive are left out. The source made the active and inactive calls. Calls follow the shape of the dose curve; as a rule, active = well fitted inhibition curve with a large enough effect in the signal ratio, with a control signal flat (not every such curve was filed as active); inconclusive = small, poorly fitted or top-dose-only effect, or effect the other way, or a change in a side signal; inactive = flat fitted curve, though single readings scatter; the % refers to the signal ratio.
Use one of these outcomes when replying: Y for active, N for inactive

Task: For this compound, state the assay outcome: `C[N+](C)(C)CCOC(=O)CBr`
Output: N

Task: For this compound, state the assay outcome: `Clc1cc(I)cc(Cl)c1NC1=NCCN1`
Output: N

Task: For this compound, state the assay outcome: `CCCN(CCC)C1Cc2cc(OC)c(OC)cc2C1`
Output: N

Task: For this compound, state the assay outcome: `O=[N+]([O-])c1cc(O)c(O)c([N+](=O)[O-])c1`
Output: N

Task: For this compound, state the assay outcome: `NCCc1ccc(S(=O)(=O)F)cc1`
Output: N

Task: For this compound, state the assay outcome: `NCCc1c[nH]c2ccc(C(N)=O)cc12`
Output: N

Task: For this compound, state the assay outcome: `O=C1C=CC(=O)C=C1`
Output: N

Task: For this compound, state the assay outcome: `NNC(=O)c1ccc(O)cc1`
Output: N

Task: For this compound, state the assay outcome: `N#CCCN`
Output: N

Task: For this compound, state the assay outcome: `O=P(O)(O)C(Cl)(Cl)P(=O)(O)O`
Output: N

Task: For this compound, state the assay outcome: `OCc1cnc[nH]1`
Output: N

Task: For this compound, state the assay outcome: `COc1ccc2[nH]c3c(c2c1)CCNC3`
Output: Y

Task: For this compound, state the assay outcome: `C[C@@H]1[C@@H]2Cc3ccc(O)cc3[C@@]1(C)CCN2CC1CC1`
Output: N

Task: For this compound, state the assay outcome: `O=S1(=O)N(CCN2CC=C(c3c[nH]c4cc(F)ccc34)CC2)c2cccc3c2N1CCC3`
Output: N

* * *

ASSAY_TEXT: qHTS assay for small molecule antagonists of the retinoid-related orphan receptor gamma (ROR-gamma) signaling pathway - cell viability counter screen (AID 720652);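 note: compound exposure lasted 16 hr before ATP read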
CONDITIONS: RORgamma reporter cell line viability counter screen; series mostly up to 92.2 µM
Inconclusive results are not listed. The source made the active and inactive calls. The call rests on the fitted dose curve; in most records, active means well fitted cell-killing curve with a large enough effect in the repeat runs; inconclusive means weak or mixed curves, or effect the other way; inactive means flat fitted curve, though single readings scatter.
Use one of these outcomes when replying: active, inactive

Task: For this molecule, state the assay outcome: `O=C/C=C/c1ccccc1`
Output: inactive

Task: For this molecule, state the assay outcome: `Oc1cc(Cl)c(Cl)cc1Cl`
Output: inactive

Task: For this molecule, state the assay outcome: `[Cl-].[Cl-].[Hg+2]`
Output: active

Task: For this molecule, state the assay outcome: `C[C@]12CCC(=O)C[C@@H]1CC[C@@H]1[C@@H]2CC[C@]2(C)[C@@H](O)CC[C@@H]12`
Output: inactive

Task: For this molecule, state the assay outcome: `CCOC(=O)c1ccccc1C(=O)OCC`
Output: inactive

Task: For this molecule, state the assay outcome: `ClC(Cl)(Cl)Cl`
Output: inactive

Task: For this molecule, state the assay outcome: `CC(C)(C)c1cc(O)ccc1O`
Output: inactive

Task: For this molecule, state the assay outcome: `NNC(N)=O`
Output: inactive

* * *

ASSAY_TEXT: qHTS Assay for Identifying Gametocytocidal Compounds (AID 743244);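 note: % is set by controls: 0 for no effect and ±100 for the full control effect; actives lower the fluorescent signal which means gametocytes are killed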
CONDITIONS: P. falciparum 3D7 stage III-V gametocytes, alamarBlue, 72 h; stronger effect = lower value
Excerpt: Malaria cases and deaths have dropped 50% in 29 countries since 2000 due to the combined effects of long-lasting insecticidal bednets, indoor residual spraying, and artemisinin-based combination therapies (ACTs). […] Within live cells, the nonfluorescent resazurin is reduced to resorufin, a bright red fluorescence dye. Fluorescence decreases upon treatment of gametocytocidal compounds. […]
Records with an inconclusive call do not appear.
Field: max response. Provide a value for each of the molecules that follow.
# value in %; strip the unit string

Form field max response, entry CC(=O)OC1CN2CCC1CC2 (stereo not drawn) : -0.102

Form field max response, entry NC(C(=O)O)c1cc(=O)[nH]o1 (stereo not drawn) : 7.64

Form field max response, entry `CC(=O)NBr` : 10.7

Form field max response, entry OC(c1ccccc1)(c1ccccc1)C1CN2CCC1CC2 (stereo not drawn) : -14.7

Form field max response, entry `Cn1sc(Cl)cc1=O` : 0.945

Form field max response, entry CN(C(=O)Cc1ccc(Cl)c(Cl)c1)C(CN1CCCC1)c1cccc(OCC(=O)O)c1 (stereo not drawn) : 13

Form field max response, entry COC(=O)N1CCN(C(=O)Cc2ccc(Cl)c(Cl)c2)C(CN2CCCC2)C1 (stereo not drawn) : 14.6

Form field max response, entry `CCCCCl` : 3.57

Form field max response, entry `CO[C@H]1[C@@H](O)C[C@H](O[C@H]2[C@@H](O)C[C@H](O[C@H]3[C@@H](O)C[C@H](O[C@H]4CC[C@@]5(C)[C@H](CC[C@@H]6[C@@H]5C[C@@H](O)[C@]5(C)[C@@H](C7=CC(=O)OC7)CC[C@]65O)C4)O[C@@H]3C)O[C@@H]2C)O[C@@H]1C` : -9.7

Form field max response, entry COCC(C)N(C(=O)CCl)c1c(C)csc1C (stereo not drawn) : -1.03

Form field max response, entry `CCCn1c(=O)c2[nH]c(C3CCCC3)nc2n(CCCOC(=O)c2ccc(S(=O)(=O)F)cc2)c1=O` : 11.9

Form field max response, entry C[N+]1(C)[C@@H]2CC[C@H]1CC(OC(=O)c1c[nH]c3ccccc13)C2 (stereo partly drawn) : 8.77

Form field max response, entry CCC1(c2ccccc2)C(=O)NC(=O)N(C)C1=O (stereo not drawn) : -0.22

Form field max response, entry CN1C2CCC1CC(OC(c1ccccc1)c1ccccc1N)C2 (stereo not drawn) : 17.7

Form field max response, entry `C[C@]12CC[C@H]3[C@@H](CCC4=C(Cl)C(=O)CC[C@@]43C)[C@@H]1CC[C@@H]2O` : -5.5

Form field max response, entry `C/C(=C\c1csc(C)n1)[C@@H]1C[C@@H]2O[C@]2(C)CCC[C@H](C)[C@H](O)[C@@H](C)C(=O)C(C)(C)[C@@H](O)CC(=O)O1` : 12.6

Form field max response, entry CCCN(CCC)C1CCc2cccc(O)c2C1 (stereo not drawn) : 13.2

Form field max response, entry `CCC(=O)O[C@]1(c2ccccc2)CCN(C)C[C@H]1C` : -3.07

Form field max response, entry ClCC1CO1 (stereo not drawn) : 11.4

Form field max response, entry `O=[N+]([O-])c1cc(O)c(O)c([N+](=O)[O-])c1` : -6.67

Form field max response, entry `CCCCCCC(=O)O[C@H]1CC[C@H]2[C@@H]3CC[C@H]4CC(=O)C=C(C)[C@]4(C)[C@H]3CC[C@]12C` : 7.58

Form field max response, entry `N[C@@H](CCl)C(=O)O` : 3.64

Form field max response, entry `C=CC[C@]1(O)CC[C@H]2[C@@H]3CCC4=CCCC[C@@H]4[C@H]3CC[C@@]21C` : 15.3
